biological target: Factor D (Homo sapiens (Human)); assay: biochemical; format: biochemical; settings: read-out: IC50
Sequence (P00746 26-253): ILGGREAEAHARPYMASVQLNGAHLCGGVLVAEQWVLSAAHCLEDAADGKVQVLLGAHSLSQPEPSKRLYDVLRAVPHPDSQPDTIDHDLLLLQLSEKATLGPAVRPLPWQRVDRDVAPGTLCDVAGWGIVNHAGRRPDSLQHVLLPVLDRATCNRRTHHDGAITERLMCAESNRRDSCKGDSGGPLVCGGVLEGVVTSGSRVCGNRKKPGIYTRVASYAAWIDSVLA
Lab note: class by IC50, see lo = under 90 nM, med = from 90 nM up to 400 nM, hi = 400 nM and over

compound="NC(=O)n1cc(NC(=O)N2C[C@H](F)C[C@H]2CNS(=O)(=O)c2ccccc2)c2ccccc21 [Example 105]" label_class=hi
compound="COC[C@@]12C[C@@H](C(=O)NCc3cccc(Cl)c3F)N(C(=O)Nc3cn(C(N)=O)c4ccccc34)[C@@H]1C2 [Example 184]" label_class=lo
compound="NC(=O)n1cc(NC(=O)N2C[C@@H](N)C[C@H]2C(=O)NC(c2ccccc2)c2ccccc2)c2ccccc21 [Example 73]" label_class=med
compound="NC(=O)n1cc(NC(=O)N2C[C@@H](N)C[C@H]2C(=O)NCc2cccc(Cl)c2F)c2ccccc21 [Example 26]" label_class=lo
compound="NC(=O)n1cc(NC(=O)N2CCS[C@H]2C(=O)NCc2cccc(Cl)c2F)c2ccccc21 [Example 178]" label_class=lo
compound="CC[C@H](C)[C@@H](CO)NC(=O)[C@@H]1C[C@H](N)CN1C(=O)Nc1cn(C(N)=O)c2ccccc12 [Example 101]" label_class=hi
compound="CN(C)C[C@H]1C[C@@H](C(=O)NCc2cccc(Cl)c2F)N(C(=O)Nc2cn(C(N)=O)c3ccccc23)C1 [Example 406]" label_class=med
compound="CC(=O)c1cn(CC(=O)N2[C@@H]3C[C@@H]3C[C@H]2C(=O)NCc2ccc(Cl)s2)c2ncccc12 [Example 484]" label_class=med
compound="NC(=O)c1cn(CC(=O)N2C[C@H](F)C[C@H]2C(=O)NCc2cccc(Cl)c2F)c2c(Cl)cccc12 [Example 489]" label_class=med
compound="COCCN[C@H]1C[C@@H](C(=O)NCc2cccc(Cl)c2F)N(C(=O)Nc2cn(C(N)=O)c3ccccc23)C1 [Example 426]" label_class=hi
compound="CC(=O)c1cn(CC(=O)N2[C@@H]3C[C@@H]3C[C@H]2C(=O)N[C@H](CCO)c2cccc(Cl)c2F)c2ccccc12 [Example 504]" label_class=lo
compound="CC(=O)N[C@H]1[C@@H](C(=O)NCc2cccc(Cl)c2F)N(C(=O)Nc2cn(C(N)=O)c3ccccc23)C[C@@H]1F [Example 206]" label_class=med
compound="NC(=O)n1cc(NC(=O)N2C[C@H](F)C[C@H]2C(=O)Nc2cc(Cl)cc(C(=O)O)c2)c2ccccc21 [Example 339]" label_class=lo
compound="NC(=O)n1cc(NC(=O)N2C3CC3C[C@H]2C(=O)NCc2ccc(Cl)s2)c2ccccc21 (stereo partly drawn) [Example 155]" label_class=lo
compound="NC(=O)n1cc(NC(=O)N2C[C@@H](N)C[C@H]2C(=O)NCc2ccccc2Cl)c2ccccc21 [Example 50]" label_class=hi
compound="NC(=O)n1cc(NC(=O)N2[C@@H]3C[C@@H]3C[C@H]2C(=O)NCc2cccc(Cl)c2F)c2cc(CC(=O)O)ccc21 [Example 377]" label_class=lo
compound="NC(=O)n1cc(NC(=O)N2CC=C[C@H]2C(=O)Nc2cccc(OC(F)(F)F)c2)c2ccccc21 [Example 145]" label_class=med
compound="Cc1cc2c(C(N)=O)nn(CC(=O)N3[C@@H]4C[C@@H]4C[C@H]3C(=O)Nc3cccc(OC(F)(F)F)c3F)c2c[n+]1[O-] [Example 726]" label_class=med
compound="NC[C@H]1C[C@@H](C(=O)Nc2cccc(OC(F)(F)F)c2)N(C(=O)Nc2cn(C(N)=O)c3ccccc23)C1 [Example 403]" label_class=hi
compound="COC1CN(C(=O)c2cc(Cl)c(F)c(CNC(=O)[C@@H]3C[C@@H](F)CN3C(=O)Nc3cn(C(N)=O)c4ccccc34)c2)C1 [Example 255]" label_class=hi
compound="CC(=O)c1cn(CC(=O)N2[C@@H]3C[C@@H]3C[C@H]2C(=O)Nc2cccc(OC(F)(F)F)c2)c2ncccc12 [Example 558]" label_class=hi
compound="Cc1ncc(Br)cc1NC(=O)[C@@H]1C[C@@H](F)CN1C(=O)Nc1cn(C(N)=O)c2ccccc12 [Example 168]" label_class=med
compound="NC(=O)n1cc(NC(=O)N2[C@@H]3C[C@@H]3C[C@H]2C(=O)N[C@H](CCO)c2cccc(Cl)c2F)c2ccccc21 [Example 223]" label_class=lo
compound="NC(=O)n1cc(NC(=O)N2C[C@H](F)C[C@H]2C(=O)NCc2ccncc2F)c2ccccc21 [Example 230]" label_class=hi
compound="CC[C@H](C)[C@H](NC(=O)[C@@H]1C[C@H](N)CN1C(=O)Nc1cn(C(N)=O)c2ccccc12)C(=O)OC [Example 92]" label_class=hi
compound="CCN(CC)c1cc(Cl)c(F)c(CNC(=O)[C@@H]2C[C@@H](F)CN2C(=O)Nc2cn(C(N)=O)c3ccccc23)c1 [Example 252]" label_class=med
